# experimental_details: chitosan synthesis blockers in C. neoformans – flow cytometry, Cibacron Brilliant Red staining (AID 1347148);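 note: compound exposure lasted three days at 37 degrees C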
# measurement_conditions: Cryptococcus neoformans chitosan, stronger effect = lower value; at 10 µM unless noted
The source made the active and inactive calls. The rule behind the calls is not given here.
measured_endpoint: fold fluorescence

The cases that follow already have their fold fluorescence on record.
Q: Which measured fold fluorescence value corresponds to C=C[C@@H]1CN2CCC1C[C@H]2[C@H](O)c1ccnc2ccc(OC)cc12 (stereo not given in full) ?
A: 3.61 [at 154.1 µM] (inactive)

Q: Field request: fold fluorescence | item: CCCCCCCCCCCCCCCCCCc1ccc(C(=O)/C=C/C(=O)O)cc1
A: 13.3 [at 116.6 µM] (inactive)

Others:
Q: Name the reported fold fluorescence value associated with the compound COC(=O)C1=C(C)NC(C)=C(C(=O)OCCN(C)Cc2ccccc2)[C@H]1c1cccc([N+](=O)[O-])c1
A: 4.49 [at 104.3 µM] (inactive)

* * *

# experimental_details: drug combination growth inhibition, ovarian cancer – cell-based, oncology-focused library, rucaparib conditional, profiling panel (AID 1508598)
# measurement_conditions: patient-derived ovarian cancer cells, CellTiter-Glo viability, 144 h; at 0.00488 µM; OCI-C5x cells; with rucaparib 10 µM; stronger effect = lower value; 100% = cells with rucaparib alone
Each entry below carries its reported viability.
Express the result in % but write the number alone.

Here is how some compounds turned out for viability.
Q: Tell me the measured viability of Cc1cc([N+](=O)[O-])ccc1NS(=O)(=O)c1cc(Cl)ccc1Cl , please.
A: 120

Q: Requested read-out: viability. Entry: Cc1cc2c(C(=O)NC[C@H](C)c3ccccc3)c(O)c(O)cc2c(O)c1-c1c(C)cc2c(C(=O)NC[C@H](C)c3ccccc3)c(O)c(O)cc2c1O
A: 128

Q: What does the record list as viability for COc1cc(C(=O)NC2CCN(C)CC2)ccc1Nc1ncc2c(n1)N(C1CCCC1)CC(F)(F)C(=O)N2C ?
A: 111

Turning to the following compound.
Q: Return reported viability; argument: COC1=C2C[C@H](C)C[C@@H](OC)[C@H](O)[C@H](C)/C=C(\C)[C@H](OC(N)=O)[C@@H](OC)/C=C/C=C(\C)C(=O)NC(=CC1=O)C2=O
A: 114

* * *

# z-score values compiled below
# experimental_details: galactose survival enhancers in mitochondrial complex I cybrids – cell-based, galactose medium, ATP luminescence, primary screen (AID 1645843);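 note: positive z means more ATP and so rescue of galactose-driven cybrid death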
# measurement_conditions: complex I mutant cybrid cells, 72 h, stronger effect = higher value
Answer as a number with no unit attached.

Q: I would be grateful if you could share the reported z-score for CC1(C)CCN(C(=O)c2cc(-c3cnc(C4CC4)nc3)nc3cc(F)ccc23)C1 .
A: -0.56

Q: Item under review: CCn1c2ccccc2c2cc(CNC)ccc21 . Reported z-score?
A: -0.915

Q: I would be grateful if you could share the reported z-score for O=C(CC1CCCCCC1)N1CCC(Cn2cc(CO)nn2)CC1 .
A: -0.5

Q: What does the data say about its z-score? Entry: CC(C)n1cc(-c2cc(C(=O)N(C)Cc3ccncc3)c3ccc(F)cc3n2)cn1
A: -0.46

Q: Any idea what its z-score is? The molecule is CN1C2CCC1CC(OC(=O)C(O)c1ccccc1)C2 (configuration not stated)
A: 0.155

Q: Consider the molecule CC(C)CN1C[C@@H](CN2CCOCC2)C[C@@H](C(=O)N2CCCC2)C1 and give its measured z-score.
A: -0.485
